target: hCA XII (Homo sapiens, UniProt O43570); construct: made in house; test: stopped-flow CO2 hydrase assay, hCA XII; assay type: biochemical; conditions: selectivity for inhibiting hCA XII over hCA II (values equal Ki hCA II / Ki hCA XII)
Sequence (O43570 25-354): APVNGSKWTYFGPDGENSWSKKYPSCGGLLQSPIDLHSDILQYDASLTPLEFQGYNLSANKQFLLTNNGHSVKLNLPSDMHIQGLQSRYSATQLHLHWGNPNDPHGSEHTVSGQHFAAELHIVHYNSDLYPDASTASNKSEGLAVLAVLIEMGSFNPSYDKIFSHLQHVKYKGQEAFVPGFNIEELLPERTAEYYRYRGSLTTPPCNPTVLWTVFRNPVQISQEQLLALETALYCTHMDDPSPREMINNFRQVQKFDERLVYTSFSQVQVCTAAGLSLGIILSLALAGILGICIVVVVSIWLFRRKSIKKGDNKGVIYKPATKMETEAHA
property.name: SR XII/II (Selectivity Ratio)

Observe how each entry below is paired with its result.
[
  {
    "compound": "COC(=O)c1cc(-c2nc3ccc(S(N)(=O)=O)cc3[nH]2)ccc1O [Compound 13]",
    "study.target": "hCA XII (Homo sapiens, UniProt O43570)",
    "value": 2.3
  },
  {
    "compound": "NS(=O)(=O)c1ccc2nc(-c3ccc(C(=O)O)cc3)[nH]c2c1 [Compound 11]",
    "study.target": "hCA XII (Homo sapiens, UniProt O43570)",
    "value": 2.3
  },
  {
    "compound": "NS(=O)(=O)c1ccc2nc(CCc3ccc(O)cc3)[nH]c2c1 [Compound 8]",
    "study.target": "hCA XII (Homo sapiens, UniProt O43570)",
    "value": 4.9
  },
  {
    "compound": "NS(=O)(=O)c1ccc2nc(-c3ccc(O)cc3)[nH]c2c1 [Compound 6]",
    "study.target": "hCA XII (Homo sapiens, UniProt O43570)",
    "value": 2.3
  },
  {
    "compound": "NS(=O)(=O)c1ccc2nc(-c3ccccc3)[nH]c2c1 [Compound 9]",
    "study.target": "hCA XII (Homo sapiens, UniProt O43570)",
    "value": 1.3
  },
  {
    "compound": "NS(=O)(=O)c1ccc2nc(CCc3ccc(O)c(C(=O)O)c3)[nH]c2c1 [Compound 18]",
    "study.target": "hCA XII (Homo sapiens, UniProt O43570)",
    "value": 5.9
  }
]

1. NS(=O)(=O)c1ccc2nc(Cc3ccc(O)cc3)[nH]c2c1 [Compound 7]
2. COC(=O)c1cc(CCc2nc3ccc(S(N)(=O)=O)cc3[nH]2)ccc1O [Compound 17]
3. NS(=O)(=O)c1ccc2nc(-c3ccc(O)c(C(=O)O)c3)[nH]c2c1 [Compound 14]
4. COC(=O)c1ccc(-c2nc3ccc(S(N)(=O)=O)cc3[nH]2)cc1 [Compound 10]
Thanks in advance: please rank these 4 entries by SR XII/II (Selectivity Ratio), highest to lowest. Provide the ranking by listing each label in its place in the requested order.
3, 2, 4, 1

---

target: hCA I (Homo sapiens, UniProt P00915); construct: made in house; test: stopped-flow CO2 hydrase assay, hCA I; type: biochemical; details: recombinant enzyme, mean from 3 different assays, errors ± 5–10%
Sequence (P00915 whole entry): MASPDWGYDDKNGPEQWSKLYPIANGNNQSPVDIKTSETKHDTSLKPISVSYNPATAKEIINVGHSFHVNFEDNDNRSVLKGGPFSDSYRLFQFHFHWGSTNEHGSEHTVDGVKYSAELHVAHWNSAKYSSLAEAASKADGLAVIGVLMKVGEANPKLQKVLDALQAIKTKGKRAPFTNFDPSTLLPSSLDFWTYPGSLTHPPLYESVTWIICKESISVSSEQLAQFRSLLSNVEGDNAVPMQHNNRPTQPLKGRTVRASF
pKi: −log10 of the molar value.
property.name: pKi

Observe how each entry below is paired with its result.
[
  {
    "smi": "COC(=O)c1cc(-c2nc3ccc(S(N)(=O)=O)cc3[nH]2)ccc1O",
    "study.target": "hCA I (Homo sapiens, UniProt P00915)",
    "property.name": "pKi",
    "value": 6.90
  },
  {
    "smi": "NS(=O)(=O)c1ccc2nc(Cc3ccc(O)cc3)[nH]c2c1",
    "study.target": "hCA I (Homo sapiens, UniProt P00915)",
    "property.name": "pKi",
    "value": 6.35
  }
]

P. NS(=O)(=O)c1ccc2nc(-c3ccccc3)[nH]c2c1
Q. NS(=O)(=O)c1ccc2nc(-c3ccc(O)c(O)c3)[nH]c2c1
For the pair P and Q , which member has the lower pKi number? Identify your pick by its label.
Q
(Q: 6.77, P: 7.03)
